SYSTEM: ACL (Homo sapiens (Human), UniProt P53396)
Sequence (P53396 other isoform, or with tags, fused parts or gaps isoform P53396-2): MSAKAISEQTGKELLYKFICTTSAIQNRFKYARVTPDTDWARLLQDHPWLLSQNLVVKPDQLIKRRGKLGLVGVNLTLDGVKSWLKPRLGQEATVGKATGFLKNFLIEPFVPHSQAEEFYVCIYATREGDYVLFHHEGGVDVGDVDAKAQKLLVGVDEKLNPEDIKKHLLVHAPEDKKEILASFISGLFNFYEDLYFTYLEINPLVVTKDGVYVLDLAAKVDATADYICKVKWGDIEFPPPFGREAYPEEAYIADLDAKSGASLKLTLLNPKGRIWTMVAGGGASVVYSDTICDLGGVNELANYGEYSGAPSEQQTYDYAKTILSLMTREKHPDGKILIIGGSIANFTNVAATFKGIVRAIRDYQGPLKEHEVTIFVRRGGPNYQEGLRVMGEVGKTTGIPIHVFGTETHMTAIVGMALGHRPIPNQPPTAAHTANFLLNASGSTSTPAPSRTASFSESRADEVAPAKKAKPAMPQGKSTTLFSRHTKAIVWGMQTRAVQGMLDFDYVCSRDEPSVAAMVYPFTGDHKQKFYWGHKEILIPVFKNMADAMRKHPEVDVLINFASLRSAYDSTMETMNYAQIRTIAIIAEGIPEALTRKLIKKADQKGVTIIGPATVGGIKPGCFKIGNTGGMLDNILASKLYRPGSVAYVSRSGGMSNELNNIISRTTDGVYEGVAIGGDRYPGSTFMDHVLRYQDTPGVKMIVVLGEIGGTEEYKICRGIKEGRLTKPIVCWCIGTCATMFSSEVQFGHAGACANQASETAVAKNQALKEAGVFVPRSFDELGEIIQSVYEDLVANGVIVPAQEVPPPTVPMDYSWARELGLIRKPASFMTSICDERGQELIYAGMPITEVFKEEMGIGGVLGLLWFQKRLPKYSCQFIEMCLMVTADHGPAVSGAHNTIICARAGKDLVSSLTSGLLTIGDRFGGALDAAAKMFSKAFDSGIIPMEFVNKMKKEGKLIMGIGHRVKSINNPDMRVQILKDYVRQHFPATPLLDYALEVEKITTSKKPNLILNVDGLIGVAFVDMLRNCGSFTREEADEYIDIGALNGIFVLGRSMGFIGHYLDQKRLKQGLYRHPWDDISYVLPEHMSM
ASSAY_COMMENT: ADP-Glo Assay
READOUT_KIND: IC50

CC(C)S(=O)(=O)Nc1ccc(S(=O)(=O)Nc2cc(-c3ccccc3)ccc2F)cc1F > 20 µM
O=S(=O)(Nc1cc(N2CCNCC2)c(F)cc1F)c1cc(Cl)cc(Cl)c1O > 20 µM
COc1ccc(NC(=O)C2CC2)cc1NS(=O)(=O)c1cc(Cl)cc(Cl)c1O 0.5 to 20 µM
CC(=O)NCCNC(=O)c1cc(Cl)c(O)c(S(=O)(=O)Nc2cc(-c3ccccc3)c(F)cc2F)c1 0.5 to 20 µM
COC(=O)c1cc(Cl)cc(S(=O)(=O)Nc2cc(-c3ccccc3)ccc2OC)c1O > 20 µM
O=C(c1cc(Cl)c(O)c(S(=O)(=O)Nc2cc3ccsc3cc2F)c1)N1CCC1 0.5 to 20 µM
O=S(=O)(Nc1ccoc1)c1cc(Cl)cc(Cl)c1 0.05 to 0.5 µM
O=S(=O)(Nc1cc(-c2ccccc2)ccc1O)c1cc(Cl)cc(Cl)c1O 0.5 to 20 µM
O=S(=O)(Nc1cc(-c2ccccc2)c(F)cc1F)c1cccc2nsnc12 > 20 µM

----------
SYSTEM: ACL (Homo sapiens (Human))
ASSAY_COMMENT: ADP-Glo Assay
SETTINGS: read-out: ACL-ADP-Glo (IC50); 3 nM ACL, 15 μM ATP, 3 μM CoA, 300 μM Citrate
Measured IC50 values are reported for all entries that follow.
READOUT_KIND: IC50

CCOC(=O)c1cc(Cl)c(O)c(S(=O)(=O)Nc2cc(-c3cc4ccccc4s3)c(F)cc2OC)c1 < 50 nM
CCOC(=O)c1cc(Cl)c(O)c(S(=O)(=O)Nc2cc(-c3cc4ccccc4s3)c(F)cc2F)c1 < 50 nM
O=C(c1cc(Cl)c(O)c(S(=O)(=O)Nc2cc(-c3ccccc3)c(F)cc2F)c1)N1CC[C@H](O)C1 < 50 nM
O=S(=O)(Nc1cc(-c2ccccc2)c(F)cc1F)c1cc(-c2cncs2)cc(Cl)c1O < 50 nM
CC(=O)NCCOC(=O)c1cc(Cl)c(O)c(S(=O)(=O)Nc2cc(-c3ccccc3)c(F)cc2F)c1 < 50 nM
CN(C)C(=O)c1cc(Cl)c(O)c(S(=O)(=O)Nc2cc(-c3ccccc3)ccc2C(=O)O)c1 500 to 20000 nM

----------
Measured IC50 values are reported for all entries that follow.
SYSTEM: ACL (Homo sapiens (Human), UniProt P53396)
ASSAY_COMMENT: ADP-Glo Assay
READOUT_KIND: IC50

MOLECULE	READOUT_KIND	ENDPOINT_RESULT
O=S(=O)(Nc1cc(-c2ccccc2)ccc1F)c1cc(Cl)cc(Cl)c1OCC(F)(F)F [I-85]	IC50	0.5 to 20 µM
COc1ccc(-c2ccccc2)cc1NS(=O)(=O)c1cc(-c2nn[nH]n2)cc(Cl)c1OC [I-71]	IC50	0.5 to 20 µM
COc1ccc(-c2ccccc2)cc1NS(=O)(=O)c1ccc(C#N)cc1 [I-410]	IC50	> 20 µM
COc1ccc(Br)cc1NS(=O)(=O)c1cc(Cl)cc(Cl)c1O [I-4]	IC50	0.5 to 20 µM
O=C(O)c1cc(NC(=O)c2cc(F)cc3nc[nH]c23)ccc1Cl [I-535]	IC50	> 20 µM
O=C(O)c1ccc(-c2ccccc2)cc1NS(=O)(=O)c1cc(Cl)cc(-c2nccs2)c1 [I-234]	IC50	0.5 to 20 µM
O=C(O)c1ccc(-c2ccccc2)cc1NS(=O)(=O)CC1CCC1 [I-307]	IC50	0.5 to 20 µM
COc1cc(Br)ccc1NS(=O)(=O)c1cc(Cl)cc(Cl)c1O [I-11]	IC50	0.5 to 20 µM
O=S(=O)(Nc1cc(-c2ccccc2)c(F)cc1F)c1cc(Cl)cc(-c2nn[nH]n2)c1 [I-72]	IC50	0.5 to 20 µM

The values you see were collected from patent US11555012B2.
